Value source: patent US20200009173A1

Test system: S. epidermidis
Assay: MICs of solithromycin and comparator drugs, S. epidermidis (30 species)
Type: cell-based
Description: EXAMPLE. The formulations described herein show overall higher potency against ocular pathogens than commercial standards. MICs (μg/ml) of Solithromycin and Comparator Drugs against Bacterial Species
Form field: I (intermediate susceptibility) (one value per entry).

# CHEMICAL STRUCTURE, I (intermediate susceptibility) / %
rows = [
    ("CC[C@H]1OC(=O)[C@H](C)[C@@H](O[C@H]2C[C@@](C)(OC)[C@@H](O)[C@H](C)O2)[C@H](C)[C@@H](O[C@@H]2O[C@H](C)C[C@H](N(C)C)[C@H]2O)[C@](C)(O)C[C@@H](C)CN(C)[C@H](C)[C@@H](O)[C@]1(C)O", 0),
    ("CC[C@H]1OC(=O)[C@@](C)(F)C(=O)[C@H](C)[C@@H](O[C@@H]2O[C@H](C)C[C@H](N(C)C)[C@H]2O)[C@](C)(OC)C[C@@H](C)C(=O)[C@H](C)[C@H]2N(CCCCn3cc(-c4cccc(N)c4)nn3)C(=O)O[C@]12C", 3),
    ("NC[C@H]1O[C@H](O[C@H]2[C@H](O)[C@@H](O[C@H]3O[C@H](CO)[C@@H](O)[C@H](N)[C@H]3O)[C@H](N)C[C@@H]2N)[C@H](N)C[C@@H]1O", 3),
    ("COc1c(N2C[C@@H]3CCCN[C@@H]3C2)c(F)cc2c(=O)c(C(=O)O)cn(C3CC3)c12", 3),
]

----------
assay: Protein binding in plasma; type: in vitro ADME

# CHEMICAL STRUCTURE, fraction unbound
data = [
    ("CC[C@H]1OC(=O)[C@@](C)(F)C(=O)[C@H](C)[C@@H](O[C@@H]2O[C@H](C)C[C@H](N(C)C)[C@H]2O)[C@](C)(OC)C[C@@H](C)C(=O)[C@H](C)[C@H]2N(CCCCn3cc(-c4cccc(N)c4)nn3)C(=O)O[C@]12C", 0.14),
]

----------
system: MSRA; assay: MICs of solithromycin and comparator drugs, MSRA (30 species); assay type: cell-based; details: 30 species

# COMPOUND, TARGET OR TEST SYSTEM, I (intermediate susceptibility) (%)
rows = [
    ("CC[C@H]1OC(=O)[C@H](C)[C@@H](O[C@H]2C[C@@](C)(OC)[C@@H](O)[C@H](C)O2)[C@H](C)[C@@H](O[C@@H]2O[C@H](C)C[C@H](N(C)C)[C@H]2O)[C@](C)(O)C[C@@H](C)CN(C)[C@H](C)[C@@H](O)[C@]1(C)O [Azithromycin, azithromycin]", "MSRA", 0),
    ("COc1c(N2C[C@@H]3CCCN[C@@H]3C2)c(F)cc2c(=O)c(C(=O)O)cn(C3CC3)c12 [Moxifloxacin]", "MSRA", 3),
    ("NC[C@H]1O[C@H](O[C@H]2[C@H](O)[C@@H](O[C@H]3O[C@H](CO)[C@@H](O)[C@H](N)[C@H]3O)[C@H](N)C[C@@H]2N)[C@H](N)C[C@@H]1O [Tobramycin]", "MSRA", 3),
    ("CC[C@H]1OC(=O)[C@@](C)(F)C(=O)[C@H](C)[C@@H](O[C@@H]2O[C@H](C)C[C@H](N(C)C)[C@H]2O)[C@](C)(OC)C[C@@H](C)C(=O)[C@H](C)[C@H]2N(CCCCn3cc(-c4cccc(N)c4)nn3)C(=O)O[C@]12C [CEM-101, solithromycin]", "MSRA", 0),
]
